- Assay Explanation: ABTS cation radical scavenging activity
- Experimental Parameters: 100 μM, 2 min in the dark
Below, each entry is listed alongside its reported % ABTS^•+ scavenging.
# unit: % | format: bare number

See these solved cases before continuing.
• O=C1/C(=C/c2ccc(O)c(O)c2)SC(=S)N1Cc1ccccc1 [Compound 2] = 99
• O=C1/C(=C/c2ccc(O)cc2O)SC(=S)N1Cc1ccccc1 [Compound 3] = 98
• COc1ccc(/C=C2\SC(=S)N(Cc3ccccc3)C2=O)cc1O [Compound 5] = 71

Exercise: Quick one: give measured % ABTS^•+ scavenging for Cc1c(C)c2c(c(C)c1O)CCC(C)(C(=O)O)O2 (stereo not shown) [Trolox, reference compound]
Key: 99

These data points were gathered from paper PMC11820736.
